Origin of the recorded values: the supplement of paper PMC10567573

B1: DLC1 (parent)
chain: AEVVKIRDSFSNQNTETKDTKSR

# Variants of: B1
# experiment.description: protein stability index of a GFP-peptide fusion (GPS, HEK-293T) (PSI 1-6); higher = more stable;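 also: lentivirally expressed fusions sorted by FACS into six bins by GFP to DsRed ratio, PSI derived from sequencing read proportions per bin multiplied by bin number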
# reported.conditions: c terminus: native
Each item that follows carries a reported protein stability index.

[[record]]
polymer_sequence = "AEVVKTRDSFSNQNTETKDTKSR [I6T]"
measured_endpoint = "protein stability index"
experimental_result = 3.6

[[record]]
polymer_sequence = "ARVVKIRDSFSNQNTETKDTKSR [E2R]"
measured_endpoint = "protein stability index"
experimental_result = 1.88

[[record]]
polymer_sequence = "AEVVKIRDSFSNENTETKDTKSR [Q13E]"
measured_endpoint = "protein stability index"
experimental_result = 2.9

[[record]]
polymer_sequence = "AEVVKIRDSFSNQNTETKDMKSR [T20M]"
measured_endpoint = "protein stability index"
experimental_result = 1.96

[[record]]
polymer_sequence = "AEVVKIFDSFSNQNTETKDTKSR [R7F]"
measured_endpoint = "protein stability index"
experimental_result = 3.38


protein stability index for AEVVKIRDSISNQNTETKDTKSR [F10I] ?
2.32

protein stability index for AEVVKIRDSFFNQNTETKDTKSR [S11F] ?
2.85

protein stability index for AEVVKIRDSFSNQNTETSDTKSR [K18S] ?
1.98

protein stability index for AEVVKIRDSFSNQNTETVDTKSR [K18V] ?
2.32

protein stability index for AEVVKIRDSFSNQNGETKDTKSR [T15G] ?
4.39

protein stability index for AEVVKIRDSFSNQNDETKDTKSR [T15D] ?
3.36

protein stability index for AEVVKIRDSFSNQNTELKDTKSR [T17L] ?
2.34
